molecular target: Apoptotic protease-activating factor 1 (Homo sapiens, UniProt O14727); format: functional
Sequence (O14727 whole entry): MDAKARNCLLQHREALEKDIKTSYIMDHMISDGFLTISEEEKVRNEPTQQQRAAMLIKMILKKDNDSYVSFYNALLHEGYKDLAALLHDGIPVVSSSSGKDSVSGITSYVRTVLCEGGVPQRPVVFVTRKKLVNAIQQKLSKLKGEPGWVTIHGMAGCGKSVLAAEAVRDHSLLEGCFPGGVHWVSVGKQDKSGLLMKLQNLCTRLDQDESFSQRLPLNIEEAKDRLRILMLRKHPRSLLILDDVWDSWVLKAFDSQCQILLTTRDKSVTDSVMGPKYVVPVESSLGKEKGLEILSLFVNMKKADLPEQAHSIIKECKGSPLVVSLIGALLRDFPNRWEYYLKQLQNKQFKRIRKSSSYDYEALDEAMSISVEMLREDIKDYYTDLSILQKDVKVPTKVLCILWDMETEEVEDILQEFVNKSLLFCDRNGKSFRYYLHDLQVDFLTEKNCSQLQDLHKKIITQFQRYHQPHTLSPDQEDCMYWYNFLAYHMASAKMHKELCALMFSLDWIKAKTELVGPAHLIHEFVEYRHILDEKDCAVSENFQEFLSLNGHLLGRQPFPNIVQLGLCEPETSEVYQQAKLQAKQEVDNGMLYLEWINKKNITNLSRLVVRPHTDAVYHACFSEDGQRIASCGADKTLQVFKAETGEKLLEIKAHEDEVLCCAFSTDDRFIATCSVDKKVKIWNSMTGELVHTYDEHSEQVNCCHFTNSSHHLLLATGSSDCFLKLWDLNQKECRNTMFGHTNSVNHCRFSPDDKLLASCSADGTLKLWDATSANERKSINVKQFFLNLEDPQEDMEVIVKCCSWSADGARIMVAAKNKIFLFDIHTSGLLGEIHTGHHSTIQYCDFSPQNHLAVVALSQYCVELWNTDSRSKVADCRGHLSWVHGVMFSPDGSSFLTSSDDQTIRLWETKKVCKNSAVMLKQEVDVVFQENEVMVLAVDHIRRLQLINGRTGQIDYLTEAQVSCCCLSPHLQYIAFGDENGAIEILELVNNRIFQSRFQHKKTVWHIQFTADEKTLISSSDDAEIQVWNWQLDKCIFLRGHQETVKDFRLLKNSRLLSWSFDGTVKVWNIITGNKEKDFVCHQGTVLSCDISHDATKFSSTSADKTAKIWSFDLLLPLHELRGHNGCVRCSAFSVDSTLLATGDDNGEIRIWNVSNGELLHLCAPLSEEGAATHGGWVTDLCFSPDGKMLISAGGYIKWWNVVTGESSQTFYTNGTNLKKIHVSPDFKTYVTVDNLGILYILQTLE
Activity calls are given as the source filed them.
One label from this list, please: label 1 (active), label 0 (inactive)

Req: # fetch the recorded call for O=C(c1ccccc1)c1coc2c1C(=O)c1ccccc1C2=O here
Resp: label 1

Req: # fetch the recorded call for COc1cc(C(c2c(C)[nH]n(-c3ccccc3)c2=O)c2c(C)[nH]n(-c3ccccc3)c2=O)cc(OC)c1OC here
Resp: label 1

Req: # fetch the recorded call for CCOC(=O)c1c(C)oc2c1c(/C=N/CCC(=O)O)c(O)c1ccccc12 here
Resp: label 1

Req: # fetch the recorded call for COc1ccc2c(c1)CCC(/C=N/c1ccc3c(c1)OCO3)=C2O here
Resp: label 1

Req: # fetch the recorded call for Cc1cc(O)c2c(c1O)C(=O)[C@]13C(=C2O)C(=O)[C@@H]2[C@@H](O)[C@H]1[C@@H]1[C@H](O)[C@H]3C(=O)C3=C(O)c4c(O)cc(C)c(O)c4C(=O)[C@]312 here
Resp: label 1

Req: # fetch the recorded call for COc1ccc(CN(C)C(=O)c2cc(S(=O)(=O)NCc3ccccc3)ccc2C)c(OC)c1 here
Resp: label 0

Req: # fetch the recorded call for CCOC(=O)C1=C(c2ccccc2)N=C(N)NC1c1ccc(OCc2ccc(Cl)cc2)c(OC)c1 (configuration not stated) here
Resp: label 1

----------
Kindly supply the reported AC50 values for the records listed here.
target: Acyl-homoserine lactone acylase PvdQ (Pseudomonas aeruginosa (strain LESB58), UniProt Q9I194); assay: PvdQ acylase enzyme activity blockers – biochemical, fluorescence, plate reader and imaging, cherry-picks, dose response (AID 493231)
Calls of active or inactive are those of the source.

Reported AC50 ( CC(C)Oc1ccc(Nc2ncnc3ccccc23)cc1 ) = 16.3 µM (active)

Reported AC50 ( O=CC1=C(c2ccccc2)Oc2ccccc2O1 ) = 2.14 µM (active)

Reported AC50 ( COC(=O)c1cc(-c2ccc(Br)cc2)on1 ) = 4.37 µM (active)

Reported AC50 ( O=C1OC(c2ccccc2)c2ccccc21 (stereo not given) ) = 97.9 µM (active)

Reported AC50 ( Clc1ccc2scc(CN3CCCCC3)c2c1 ) = 9.4 µM (active)

----------
assay: alpha-synuclein stem-loop luciferase translation blockers – H4 neuroglioma cells, luminescence, confirmation (AID 1988); type: functional, cell-based
The source made the active and inactive calls.
Kindly supply the reported EC50 values for the records listed here.

Reported EC50 ( COc1ccc(OC)c(C2CC(=O)Nc3[nH]nc(-c4ccccc4)c32)c1 (stereo unspecified) ) = > 120 µM (not active)

Reported EC50 ( O=C(N/N=C/c1sc2ccccc2c1O)c1cccc2ccccc12 ) = 9 µM (active)

Reported EC50 ( CSc1nnc2c3cc(C)ccc3n(Cc3ccccc3)c2n1 ) = > 120 µM (not active)

Reported EC50 ( CN1CCN(c2ccc(NC(=O)N3CCc4ccccc43)cc2)CC1 ) = > 120 µM (not active)

Reported EC50 ( CCN(CC)S(=O)(=O)c1ccc(NC(=O)Nc2cccc(C(F)(F)F)c2)cc1 ) = 11.1 µM (active)

Reported EC50 ( CCn1c(SCC(=O)Nc2nc(C)c(C)s2)nnc1-c1cccnc1 ) = > 120 µM (not active)

----------
target: DNA dC->dU-editing enzyme APOBEC-3A (Homo sapiens, UniProt P31941); assay: Dose Response confirmation of small molecule APOBEC3A DNA Deaminase Inhibitors via a fluorescence-based single-stranded DNA deaminase assay. [Related pubchem assays (depositor defined):AID493011, AID493024]; assay type: functional
Sequence (P31941 whole entry): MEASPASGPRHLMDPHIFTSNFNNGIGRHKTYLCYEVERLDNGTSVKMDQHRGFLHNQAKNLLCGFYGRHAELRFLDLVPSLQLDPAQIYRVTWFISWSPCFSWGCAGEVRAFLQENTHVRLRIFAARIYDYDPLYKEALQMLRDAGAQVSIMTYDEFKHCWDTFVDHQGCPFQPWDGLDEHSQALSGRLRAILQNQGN
Activity calls are given as the source filed them.
result_type: IC50

Reported IC50 ( CC(c1ccccc1)C1OCC(C[N+]2(C)CCCCC2)O1 (stereo unspecified) ) = 2.81 µM (active)

Reported IC50 ( CC(C)C(NC(=O)COc1ccc2ccccc2c1)C(=O)N/N=C/C=C/c1ccccc1 (stereo unspecified) ) = 3.22 µM (active)

Reported IC50 ( CN1CCC(N(C)S(=O)(=O)c2ccc(NC(=O)COc3ccc(F)cc3)cc2)CC1 ) = 3.71 µM (active)

Reported IC50 ( CC(=O)Nc1cc(-c2ccccc2)ccc1O ) = 7.17 µM (active)

Reported IC50 ( CCOCc1cnc(C)nc1NCC(=O)c1c(C)[nH]c2cc(C)ccc12 ) = 4.29 µM (active)

Reported IC50 ( CCCC[N+]12CCC(CC1)C(C(=O)c1cccs1)C2 (stereo unspecified) ) = 2.42 µM (active)

----------
molecular target: Trypsin (Sus scrofa); experiment: trypsin protease activity blockade – biochemical, quenched peptide fluorescence, cherry-pick, selectivity assay for Rce1 protease inhibitor project, dose response (AID 488789)
Sequence (P00761 whole entry): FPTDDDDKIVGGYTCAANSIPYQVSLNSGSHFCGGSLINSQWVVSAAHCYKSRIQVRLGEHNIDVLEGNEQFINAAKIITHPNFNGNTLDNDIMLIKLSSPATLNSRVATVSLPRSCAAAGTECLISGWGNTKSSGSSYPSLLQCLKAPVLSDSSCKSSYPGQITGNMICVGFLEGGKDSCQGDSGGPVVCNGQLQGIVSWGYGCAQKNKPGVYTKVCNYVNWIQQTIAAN
The source made the active and inactive calls.
Kindly supply the reported AC50 values for the records listed here.

Reported AC50 ( COc1c2ccoc2nc2c(OC)cccc12 ) = 9.78 µM (active)

Reported AC50 ( Cc1nn2c(NCCN(C)C)c3c(nc2c1-c1ccccc1)CCCC3 ) = 12.7 µM (active)

Reported AC50 ( CS(=O)(=O)Nc1ccccc1C(=O)Nc1cccc(Cl)c1 ) = 6.73 µM (active)

Reported AC50 ( CN(C)CCCN1C(=O)c2cccc3cccc(c23)C1=O ) = 38 µM (active)

----------
Kindly supply the reported EC50 values for the records listed here.
test system: Streptococcus sp. 'group A'; test: Streptococcus pyogenes SK(-)GAS viability under kanamycin – luminescence, BacTiterGlo, confirmation, counter-screen for streptokinase expression inhibitor project, dose response (AID 1900); assay type: functional, organism-based
The source made the active and inactive calls.

Reported EC50 ( CC12CCC(C/C1=N\NC1=NC(=O)/C(=C\c3ccc(Cl)cc3)S1)C2(C)C (configuration not stated) ) = 1.18 µM (active)

Reported EC50 ( CC(C)(C)OC(=O)[C@H](Cc1ccccc1)NC(=O)c1[nH]cnc1C(=O)Nc1ccc(Cl)cc1 ) = 3.71 µM (active)

Reported EC50 ( Cc1cc(=O)oc2cc(OCC(=O)N3CCN(C(=O)C4COc5ccccc5O4)CC3)ccc12 (configuration not stated) ) = 2.83 µM (active)

Reported EC50 ( O=C1C(Cl)=C(Nc2ccc3c[nH]nc3c2)C(=O)c2ccccc21 ) = 0.928 µM (active)

Reported EC50 ( C[C@]12CC[C@@H]3c4ccc(OC(=O)c5ccccc5)cc4CC[C@H]3[C@@H]1CC[C@@H]2O [ESTRADIOL BENZOATE] ) = 2.24 µM (active)

Reported EC50 ( CCc1ccc(Nc2n[n+](-c3ccccc3)c(-c3c(Cl)cccc3Cl)s2)cc1 ) = 3.58 µM (active)

Reported EC50 ( O=C(N/N=C/c1sc2ccccc2c1O)c1cccc2ccccc12 ) = 3.44 µM (active)

----------
target: Kappa-type opioid receptor (Homo sapiens, UniProt P41145); type: functional
Sequence (P41145 whole entry): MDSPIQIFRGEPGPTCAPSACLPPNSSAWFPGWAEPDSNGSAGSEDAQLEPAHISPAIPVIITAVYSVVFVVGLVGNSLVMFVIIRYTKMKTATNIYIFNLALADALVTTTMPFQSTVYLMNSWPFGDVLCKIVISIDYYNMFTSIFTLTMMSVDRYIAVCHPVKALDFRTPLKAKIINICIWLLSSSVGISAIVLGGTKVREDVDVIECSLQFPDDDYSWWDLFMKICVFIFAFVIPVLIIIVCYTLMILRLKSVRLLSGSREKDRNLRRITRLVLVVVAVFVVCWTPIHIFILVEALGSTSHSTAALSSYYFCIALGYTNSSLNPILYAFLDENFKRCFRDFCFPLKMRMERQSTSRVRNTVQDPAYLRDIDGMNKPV
result_type: IC50

Reported IC50 ( C=CC/N=c1\scc(-c2ccc3c(c2)NC(=O)CO3)n1/N=C(\C)c1ccccn1 ) = > 32 µM

----------
Kindly supply the reported IC50 values for the records listed here.
biological target: SUMO-activating enzyme (Homo sapiens); test: blockers of UBC9-mediated SUMO conjugation – biochemical, AlphaScreen, SUMOylation inhibitor project, confirmation (AID 2018); type: functional
Sequence (Q9UBE0 whole entry): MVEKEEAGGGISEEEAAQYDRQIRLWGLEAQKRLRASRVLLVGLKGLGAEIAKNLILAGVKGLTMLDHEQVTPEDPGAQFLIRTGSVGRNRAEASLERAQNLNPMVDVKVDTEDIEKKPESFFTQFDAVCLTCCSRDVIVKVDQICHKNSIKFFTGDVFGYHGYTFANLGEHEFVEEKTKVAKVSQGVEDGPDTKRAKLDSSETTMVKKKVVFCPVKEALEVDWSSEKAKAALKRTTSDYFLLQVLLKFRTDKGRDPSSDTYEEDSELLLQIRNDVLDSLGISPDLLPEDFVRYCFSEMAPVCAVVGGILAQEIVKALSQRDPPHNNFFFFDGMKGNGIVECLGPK
Sequence (Q9UBT2 whole entry): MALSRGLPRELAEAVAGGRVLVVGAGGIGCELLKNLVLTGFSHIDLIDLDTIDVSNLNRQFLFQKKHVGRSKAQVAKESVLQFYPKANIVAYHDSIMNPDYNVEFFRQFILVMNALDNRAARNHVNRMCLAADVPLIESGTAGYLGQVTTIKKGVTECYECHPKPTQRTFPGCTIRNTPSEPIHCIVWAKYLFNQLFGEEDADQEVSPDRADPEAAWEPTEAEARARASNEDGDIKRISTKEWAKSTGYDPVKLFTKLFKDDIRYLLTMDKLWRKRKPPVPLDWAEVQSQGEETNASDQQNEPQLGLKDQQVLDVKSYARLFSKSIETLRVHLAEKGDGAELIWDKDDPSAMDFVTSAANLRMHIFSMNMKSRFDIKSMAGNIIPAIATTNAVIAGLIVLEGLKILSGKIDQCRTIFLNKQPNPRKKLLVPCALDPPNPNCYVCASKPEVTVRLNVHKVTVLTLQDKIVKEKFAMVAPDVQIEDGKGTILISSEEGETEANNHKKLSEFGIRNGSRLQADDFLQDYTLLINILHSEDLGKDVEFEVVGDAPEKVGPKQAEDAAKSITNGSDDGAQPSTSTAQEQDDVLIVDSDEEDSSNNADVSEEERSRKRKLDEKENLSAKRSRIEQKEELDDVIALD
Activity calls are given as the source filed them.

Reported IC50 ( Cc1ccsc1/C=N/c1ccc(O)cc1 ) = 2.36 µM (active)

Reported IC50 ( CCOC(=O)c1c(C)oc2c1c(/C=N/CCC(=O)O)c(O)c1ccccc12 ) = 3.71 µM (active)

Reported IC50 ( Cc1cc(/C=C2\C(=N)N3N=C(c4ccco4)SC3=NC2=O)c(C)n1Cc1ccccc1 ) = 8.55 µM (active)

Reported IC50 ( COc1cc(C(c2c(C)[nH]n(-c3ccccc3)c2=O)c2c(C)[nH]n(-c3ccccc3)c2=O)cc(OC)c1OC ) = 6.66 µM (active)

----------
biological target: Paired box protein Pax-8 (Homo sapiens); test: PAX8 transcriptional activity inhibition in RMG-I – RMG-I cells, luciferase, cherry-pick, dose response (AID 687027); type: functional, cell-based;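 also: luciferase reporter driven by Pax8 target thyroperoxidase promoter measured by SteadyGlo luminescence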
Sequence (Q06710 whole entry): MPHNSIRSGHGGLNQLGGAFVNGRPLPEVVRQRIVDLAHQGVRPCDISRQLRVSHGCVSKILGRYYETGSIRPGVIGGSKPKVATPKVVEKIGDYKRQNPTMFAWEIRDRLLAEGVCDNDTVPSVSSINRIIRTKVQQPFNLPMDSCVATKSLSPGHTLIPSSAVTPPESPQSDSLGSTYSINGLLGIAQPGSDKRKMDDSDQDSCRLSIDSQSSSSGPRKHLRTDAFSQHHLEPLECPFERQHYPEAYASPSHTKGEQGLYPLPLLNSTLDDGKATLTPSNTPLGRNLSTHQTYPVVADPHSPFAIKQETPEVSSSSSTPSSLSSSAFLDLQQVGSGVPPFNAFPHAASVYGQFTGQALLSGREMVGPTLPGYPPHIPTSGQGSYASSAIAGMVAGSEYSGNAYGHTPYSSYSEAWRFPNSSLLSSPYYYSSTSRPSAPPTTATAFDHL
The source made the active and inactive calls.
Kindly supply the reported AC50 values for the records listed here.

Reported AC50 ( O=C(Nc1cccc(C(F)(F)F)c1)Nc1ccc(N2CCCC2)c(S(=O)(=O)Nc2ccccc2Cl)c1 ) = 6.41 µM (active)

Reported AC50 ( Cc1ccc(S(=O)(=O)N2CCCCC2)cc1NC(=O)Cc1c[nH]c2ccccc12 ) = 19.5 µM (active)

Reported AC50 ( COc1ccccc1NS(=O)(=O)c1cccc(C(=O)N/N=C/c2ccc([N+](=O)[O-])o2)c1 ) = 6.29 µM (active)

Reported AC50 ( COC(=O)C1=C(SC)N(c2ccccc2)C(c2ccccc2)CC1=O (centres undefined) ) = 54.1 µM (active)

----------
target: Nonstructural protein 1 (Influenza A virus); assay type: functional, Influenza A virus (A/California/07/2009(H1N1))
Sequence (Q194T2 whole entry): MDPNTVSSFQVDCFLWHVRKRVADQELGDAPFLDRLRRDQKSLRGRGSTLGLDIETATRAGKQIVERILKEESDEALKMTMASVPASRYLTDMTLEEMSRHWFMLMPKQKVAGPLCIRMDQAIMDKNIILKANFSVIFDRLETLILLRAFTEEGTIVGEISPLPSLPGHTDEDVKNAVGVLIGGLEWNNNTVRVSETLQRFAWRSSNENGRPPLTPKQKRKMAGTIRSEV
Active and inactive are the calls of the source.
Kindly supply the reported IC50 values for the records listed here.

Reported IC50 ( CN(C)c1ccc(C=C2C=CC=C2)cc1 ) = 31.5 µM (active)

Reported IC50 ( Cc1cccn2c(=O)c(/C=C(\C#N)C(N)=O)c(N3CCN(c4cccc(Cl)c4)CC3)nc12 ) = > 100 µM (active)

Reported IC50 ( O=C(N/N=C/c1c(O)ccc2ccccc12)c1ccc(CO)nc1 ) = 10.6 µM (active)

Reported IC50 ( COc1cccc(C=NNC(=O)C[n+]2ccccc2)c1O ) = 10.4 µM (active)

Reported IC50 ( COc1cccc2c1C(=O)c1c(O)c3c(c(O)c1C2=O)CC(O)(C(C)=NNC(=O)c1ccc(Cl)c(Cl)c1)CC3OC1CC(N)C(O)C(C)O1 (stereo unspecified) ) = 3.67 µM (active)

Reported IC50 ( Nc1nc(-c2ccccc2)c(N=Nc2ccccc2Cl)s1 ) = 9.93 µM (active)

Reported IC50 ( O=C(CN1CC(=O)Oc2ccccc21)OCC(=O)c1ccccc1 ) = 1.47 µM (active)

Reported IC50 ( CCc1ccc(Nc2n[n+](-c3ccccc3)c(-c3c(Cl)cccc3Cl)s2)cc1 ) = 24.4 µM (active)

Reported IC50 ( CCOC(=O)N1CCN(C(c2cccnc2)c2ccc3cccnc3c2O)CC1 (stereo unspecified) ) = 14.6 µM (active)

Reported IC50 ( CCOC(=O)C1=C(c2ccccc2)N=C(N)NC1c1ccc(OCc2ccc(Cl)cc2)c(OC)c1 (stereo unspecified) ) = 79.2 µM (active)

Reported IC50 ( Cc1ccc(C(=O)Nc2nc(-c3ccccn3)cs2)o1 ) = 10.1 µM (active)
